Parameter MCP-1 at 24 h: see the listing below.
System: MCP-1
Experiment: In vivo tolerability by IV: serum MCP-1 by Luminex
Design: species or system C57BL/6J mice
Condition description: IV 1.0 mg/kg, 24 h, male C57BL/6J mice N=3, Formulation 001, RNA 331
// return numeric value only (unit: pg/mL, not printed)

Take a look at these entries with their results.
[[record]]
compound = "CCCCCCCC/C=C\\CCCCCCCCOC(=O)NC(COC(=O)NCCN1CCCCCC1)C(=O)OCCCCCC(=O)OCC(CCCCCCCC)CCCCCCCCCC (stereo not drawn)"
quantitative_readout = 68.1

[[record]]
compound = "CCCCCCCCCCC(CCCCCCCC)COC(=O)CCCCCOC(=O)NC(COC(=O)NCCN1CCCCC1)C(=O)OCCCCCC(=O)OCC(CCCCCCCC)CCCCCCCCCC (stereo not drawn)"
quantitative_readout = 180

[[record]]
compound = "CCCCCCCCCCC(CCCCCCCC)COC(=O)CCCCCOC(=O)NC(COC(=O)NCCN1CCCC1)C(=O)OCCCCCC(=O)OCC(CCCCCCCC)CCCCCCCCCC (stereo not drawn)"
quantitative_readout = 401

[[record]]
compound = "CCCCCCCCCCC(CCCCCCCC)COC(=O)CCCCCOC(=O)NC(COC(=O)NCCN1CCCCCC1)C(=O)OCCCCCC(=O)OCC(CCCCCCCC)CCCCCCCCCC (stereo not drawn)"
quantitative_readout = 166

[[record]]
compound = "CCCCCCCCCCC(CCCCCCCC)COC(=O)CCCCCOC(=O)NC(COC(=O)NCCN1CCCCCC1)C(=O)OCCCCCCCC(=O)OC(CCCCCCCC)CCCCCCCC (stereo not drawn)"
quantitative_readout = 35.1


May I ask what MCP-1 at 24 h has been recorded for CCCCCCCCCCC(CCCCCCCC)COC(=O)CCCCCOC(=O)NC(COC(=O)NCCN(C)C)C(=O)OCCCCCC(=O)OCC(CCCCCCCC)CCCCCCCCCC (stereo not drawn) ? 94.6

* * *

System: IL-6
Experiment: In vivo tolerability by IM: serum IL-6 by Luminex
Condition description: IM 1.0 mg/kg, 2 h, male C57BL/6J mice N=3, Formulation 001, RNA 331
Quantity name: IL-6 at 2 h (pg/mL)
// return numeric value only (unit: pg/mL, not printed)

[[record]]
compound = "CCCCC/C=C\\C/C=C\\CCCCCCCC(=O)NC(COC(=O)NCCN1CCCCC1)C(=O)OCCCCCCCC(=O)OC(CCCCCCCC)CCCCCCCC (stereo not shown)"
assay_system = "IL-6"
quantity_name = "IL-6 at 2 h"
quantitative_readout = 27


May I ask what IL-6 at 2 h has been recorded for CCCCC/C=C\C/C=C\CCCCCCCC(=O)NC(COC(=O)NCCN1CCCCC1)C(=O)OCCCCCC(=O)OCC(CCCCCCCC)CCCCCCCCCC (stereo not shown) ? 24.3

May I ask what IL-6 at 2 h has been recorded for CCCCCCCC/C=C\CCCCCCCC(=O)NC(COC(=O)NCCN1CCCCC1)C(=O)OCCCCCCCCOC(=O)C(CCCCCC)CCCCCCCC (stereo not shown) ? 15

May I ask what IL-6 at 2 h has been recorded for CCCCCCCC/C=C\CCCCCCCC(=O)NC(COC(=O)NCCN1CCCCCC1)C(=O)OCCCCCCCCOC(=O)C(CCCCCC)CCCCCCCC (stereo not shown) ? 21.2

The values you see were collected from patent US20260200849A1.
